Data origin: patent US20200079833A1

- target: GLP-1 receptor (human, UniProt P43220 24-463)
- testSummary: cell-based or functional assay
Starred links: 1 amine or outer side, 2 acyl side, 3 side chain; linkers in the order of their positions; H or OH if unused. Non-standard residues stand in square brackets, D forms with d. Groups on a side chain read outwards from the residue. Primed or numbered codes have the meaning given here. No end group written: not given here. *: point of attachment. γGlu = O=C(O)[C@H](CCC(=O)[*:2])N[*:1]; Stearoyl = CCCCCCCCCCCCCCCCCC(=O)*; αMeF = C[C@](N)(Cc1ccccc1)C(=O)O; αMeS = C[C@](N)(CO)C(=O)O; PEG2′ = not defined here; Aib = CC(C)(N)C(=O)O
Note to self: Primary assay EC50 (cAMP), Mean pM GLP-1R under 6 pM means Condition met, ties and anything higher get Condition not met.

| binder | groupLabel |
| --- | --- |
| H[Aib]EGS[αMeF]TSDV[αMeS]S[αMeF]LEGEAAEEFIK([PEG2′-PEG2′-γGlu-Stearoyl])WVVEGG-NH2 [SEQ ID NO 66] | Condition not met |
| H[Aib]EGS[αMeF]TSDV[αMeS]S[αMeF]LEGEAAK([PEG2′-PEG2′-PEG2′-Stearoyl])E[αMeF]IA[αMeF]VVKGG-NH2 [SEQ ID NO 56] | Condition met |
| HXEGTFTSDVSSYLEGQAAKEFIAWLVKGRK (Aib 2; K(ε-γE-Palmitoyl) after R30; C-terminal amide) [SEQ ID NO 5] | Condition not met |
| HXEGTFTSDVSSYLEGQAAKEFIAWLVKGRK (Aib 2; K(ε-(PEG)2-(PEG)2-γE-Stearate) after R30; C-terminal amide) [SEQ ID NO 6] | Condition met |
| H[Aib]EGS[αMeF]TSDVSK([PEG2′-PEG2′-PEG2′-Stearoyl])YLEGEAA[Aib]E[αMeF]IA[αMeF]VVEGG-NH2 [SEQ ID NO 63] | Condition met |
